Target: NET (norepinephrine transporter) (Rattus norvegicus, UniProt Q63380)
Construct: Cortex from rat brain was collected and homogenised; from tissue; host or cells: rat brain cortex
Sequence (Q63380 1-617): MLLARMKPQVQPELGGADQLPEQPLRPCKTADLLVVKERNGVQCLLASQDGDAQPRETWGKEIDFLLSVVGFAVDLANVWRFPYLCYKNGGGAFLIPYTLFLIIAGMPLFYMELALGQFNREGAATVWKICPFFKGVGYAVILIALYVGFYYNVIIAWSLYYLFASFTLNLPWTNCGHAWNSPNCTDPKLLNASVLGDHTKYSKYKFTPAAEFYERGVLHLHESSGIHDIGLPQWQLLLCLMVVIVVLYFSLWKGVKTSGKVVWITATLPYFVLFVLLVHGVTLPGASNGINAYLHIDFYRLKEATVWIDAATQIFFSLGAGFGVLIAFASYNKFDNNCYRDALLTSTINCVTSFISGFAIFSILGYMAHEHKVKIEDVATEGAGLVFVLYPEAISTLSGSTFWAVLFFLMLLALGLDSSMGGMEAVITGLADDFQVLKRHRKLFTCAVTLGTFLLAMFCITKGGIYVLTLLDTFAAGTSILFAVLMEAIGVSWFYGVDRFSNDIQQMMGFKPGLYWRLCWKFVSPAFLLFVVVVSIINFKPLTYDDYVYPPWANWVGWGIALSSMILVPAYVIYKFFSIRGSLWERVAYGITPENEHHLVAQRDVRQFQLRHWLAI
Test: In vitro determination of NET reuptake inhibition ([3H]Nixosetine binding, rat brain cortex)
Details: rat brain cortex, read-out: NET pIC50 (converted)
Record form. Attribute: IC50. Fill in for each entry.
Numbers only, in µM.

Below are some molecules; for each one, tell me its IC50.
1. COc1cc(C(=O)NC2CCN(CC3CC4c5ccccc5Cc5ccc(F)cc5C4O3)CC2)cc(OC)c1OC (centres unmarked)
2. O=S(=O)(c1ccccc1)n1cccc1CN1CCN(CC2CC3c4ccccc4Cc4ccc(F)cc4C3O2)CC1 (centres unmarked)

Output line:
1: 9.12; 2: 2.4

----------
Target: human cloned 5-HT2C receptor, expressed in CHO cells (Homo sapiens, UniProt P28335)
Construct: expressed in transfected cells; host or cells: CHO cells
Test: In vitro binding affinity for 5-HT2C receptor ([3H]mesulergine radioligand binding)
Conditions: human cloned 5-HT2C receptor, read-out: 5-HT2C pIC50 (converted)
READOUT NAME: IC50 (nM)
One number for each entry, in nM.

Below are some molecules; for each one, tell me its IC50.
1. O=C(C1CCN(CC2CC3c4ccccc4Cc4ccc(F)cc4C3O2)CC1)N1CC=C(c2ccccc2)CC1 (stereo not shown) [Compound 207]
2. O=C(Nc1ccccc1)NC1CCN(CC2CC3c4ccccc4Cc4ccc(F)cc4C3O2)CC1 (stereo not shown) [Compound 247]
3. Fc1ccc2c(c1)C1OC(CN3CCN(Cc4ccco4)CC3)CC1c1ccccc1C2 (stereo not shown) [Compound 60]
4. O=C(NC1CC1)C1CCN(CC2CC3c4ccccc4Cc4ccc(F)cc4C3O2)CC1 (stereo not shown) [Compound 187]

Output line:
[6.76, 2.69, 25.1, 1.15]

----------
Biological target: human cloned 5-HT2C receptor, expressed in CHO cells (Homo sapiens, UniProt P28335)
Construct: expressed in transfected cells; host or cells: CHO cells
Sequence (P28335 33-458): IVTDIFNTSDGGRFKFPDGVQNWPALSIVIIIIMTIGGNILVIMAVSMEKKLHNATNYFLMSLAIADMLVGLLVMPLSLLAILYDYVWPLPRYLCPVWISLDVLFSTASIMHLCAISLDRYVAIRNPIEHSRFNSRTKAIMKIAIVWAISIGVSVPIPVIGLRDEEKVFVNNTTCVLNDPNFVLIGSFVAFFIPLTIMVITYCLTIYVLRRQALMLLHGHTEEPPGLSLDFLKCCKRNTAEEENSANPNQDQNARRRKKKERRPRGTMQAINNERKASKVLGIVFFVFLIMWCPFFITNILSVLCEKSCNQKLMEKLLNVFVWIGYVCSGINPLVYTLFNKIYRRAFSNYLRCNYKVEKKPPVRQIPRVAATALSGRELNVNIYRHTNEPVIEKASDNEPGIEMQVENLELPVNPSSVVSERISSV
Experiment: In vitro binding affinity for 5-HT2C receptor ([3H]mesulergine radioligand binding)
Details: human cloned 5-HT2C receptor, read-out: 5-HT2C pIC50 (converted)
Would you mind telling me the reported IC50 of each entry?
Numbers only, in nM.

Below, each entry is followed by its recorded IC50 result.
Fc1ccc2c(c1)[C@@H]1O[C@@H](CN3CCC4(CC3)OCCO4)C[C@@H]1c1ccccc1C2 [Compound 278]: 9.77
O=C(NC1CCN(CC2CC3c4ccccc4Cc4ccc(F)cc4C3O2)CC1)c1ccc(Cl)c(Cl)c1 (centres unmarked) [Compound 229]: 24
CCOC(=O)C=C1CCN(CC2CC3c4ccccc4Cc4ccc(F)cc4C3O2)CC1 (centres unmarked) [Compound 165]: 27.5

Give IC50 for each of the items listed below.
1. Fc1ccc2c(c1)C1OC(CN3CCN(c4cnccn4)CC3)CC1c1ccccc1C2 (centres unmarked) [Compound 123]
2. Fc1ccc(OC2CCN(CC3CC4c5ccccc5Cc5ccc(F)cc5C4O3)C2)cc1 (mixture of isomers) [Compound 36]
3. O=C(Nc1ccccc1F)C1CCN(CC2CC3c4ccccc4Cc4ccc(F)cc4C3O2)CC1 (centres unmarked) [Compound 189]
4. C=CS(=O)(=O)N1CCN(CC2CC3c4ccccc4Cc4ccc(F)cc4C3O2)CC1 (centres unmarked) [Compound 104]
5. CC(=O)C1(c2ccccc2)CCN(C(=O)C2CCN(CC3CC4c5ccccc5Cc5ccc(F)cc5C4O3)CC2)CC1 (centres unmarked) [Compound 209]

Output line:
1: 7.24; 2: 4.68; 3: 1.17; 4: 28.2; 5: 12

----------
Molecular target: human Dopamine D2L receptor (Homo sapiens, UniProt P14416)
Construct: expressed in transfected cells; host or cells: CHO cells
Sequence (P14416 whole entry): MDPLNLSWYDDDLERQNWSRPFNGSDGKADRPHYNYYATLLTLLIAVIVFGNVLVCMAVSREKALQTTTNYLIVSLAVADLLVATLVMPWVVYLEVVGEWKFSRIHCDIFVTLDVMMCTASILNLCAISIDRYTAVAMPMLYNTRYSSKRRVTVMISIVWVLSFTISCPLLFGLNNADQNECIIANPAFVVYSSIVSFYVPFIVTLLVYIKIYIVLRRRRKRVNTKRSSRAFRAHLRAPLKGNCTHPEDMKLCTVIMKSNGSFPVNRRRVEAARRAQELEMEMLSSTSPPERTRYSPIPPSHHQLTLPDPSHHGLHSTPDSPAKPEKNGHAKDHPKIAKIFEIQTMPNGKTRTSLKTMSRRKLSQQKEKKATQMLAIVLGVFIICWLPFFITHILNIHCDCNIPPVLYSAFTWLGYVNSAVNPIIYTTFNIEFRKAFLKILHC
Assay: In vitro binding affinity for human D2L receptor ([3H]Spiperone binding)
Settings: human D2L receptor-transfected CHO cell membranes, read-out: D2L pIC50 (converted)
Exercise: state measured IC50 for each of the compounds provided.
Answer by giving the amount and then stating its unit.

Fc1ccc2c(c1)[C@@H]1O[C@@H](CN3CCC4(CC3)OCCO4)C[C@@H]1c1ccccc1C2: 2.29 nM

I would be grateful if you could provide IC50 for each of the following entries.
1. COC(=O)C1CCN(C[C@H]2C[C@@H]3c4ccccc4Cc4ccc(F)cc4[C@@H]3O2)C1 (stereo partly shown) [Compound 12]
2. O=C(NCCCO)C1CCN(CC2CC3c4ccccc4Cc4ccc(F)cc4C3O2)CC1 (stereo not shown)
3. O=C(NCc1cccc(C(F)(F)F)c1)C1CCN(CC2CC3c4ccccc4Cc4ccc(F)cc4C3O2)CC1 (stereo not shown)
4. Fc1ccc2c(c1)C1OC(CN3CCN(Cc4cc5ccccc5o4)CC3)CC1c1ccccc1C2 (stereo not shown)

Output line:
["6.31 nM", "18.2 nM", "31.6 nM", "15.5 nM"]

Report IC50 for every entry below.
1. CCCCCC(=Cc1ccccc1)CN1CCN(CC2CC3c4ccccc4Cc4ccc(F)cc4C3O2)CC1 (stereo not shown)
2. Cn1cccc1C(=O)NC1CCN(CC2CC3c4ccccc4Cc4ccc(F)cc4C3O2)CC1 (stereo not shown)
3. CSc1nccc(N2CCN(CC3CC4c5ccccc5Cc5ccc(F)cc5C4O3)CC2)n1 (stereo not shown)

Output line:
["70.8 nM", "7.76 nM", "47.9 nM"]

Hi team, please reply with IC50 for each item in this list.
1. O=C(Nc1ccccc1Oc1ccccc1)NC1CCN(CC2CC3c4ccccc4Cc4ccc(F)cc4C3O2)CC1 (stereo not shown)
2. COC(CNC(=O)N1CCN(CC2CC3c4ccccc4Cc4ccc(F)cc4C3O2)CC1)OC (stereo not shown)
3. OC1CCN(CC2CC3c4ccccc4Sc4ccc(F)cc4C3O2)C1 (racemic)
4. COC(=O)c1ccc(CN2CCN(CC3CC4c5ccccc5Cc5ccc(F)cc5C4O3)CC2)cc1 (stereo not shown)
5. Fc1ccc2c(c1)C1OC(CN3CCN(c4nc5ccccc5o4)CC3)CC1c1ccccc1C2 (stereo not shown)
6. CCNC(=O)N1CCN(C[C@H]2C[C@@H]3c4ccccc4Cc4ccc(F)cc4[C@@H]3O2)CC1

Output line:
37.2 nM
37.2 nM
10 nM
26.9 nM
214 nM
55 nM

Here are 4 compounds. What values of IC50 were reported for them?
1. O=[N+]([O-])c1ccc(-c2ccc(CN3CCN(CC4CC5c6ccccc6Cc6ccc(F)cc6C5O4)CC3)o2)cc1 (stereo not shown)
2. OCCC1CN(C[C@H]2C[C@@H]3c4ccccc4Cc4ccc(F)cc4[C@@H]3O2)CCO1 (stereo partly shown)
3. COc1ccccc1OC1CCN(CC2CC3c4ccccc4Cc4ccc(F)cc4C3O2)C1 (mixture of isomers)
4. OCCC1CCN(CC2CC3c4ccccc4Cc4ccc(F)cc4C3O2)C1 (mixture of isomers)

Output line:
1. 74.1 nM
2. 29.5 nM
3. 7.41 nM
4. 4.07 nM

Could you report IC50 for every entry in the following list?
1. O=C(NC1CCN(CC2CC3c4ccccc4Cc4ccc(F)cc4C3O2)CC1)c1ccc(Cl)cc1Cl (stereo not shown)
2. O=C(C1CCN(CC2CC3c4ccccc4Cc4ccc(F)cc4C3O2)CC1)N1CC=C(c2ccccc2)CC1 (stereo not shown)
3. NCCNC(=S)NC1CCN(CC2CC3c4ccccc4Cc4ccc(F)cc4C3O2)CC1 (stereo not shown)
4. OC(COc1ccc(Cl)cc1)CN1CCN(C[C@H]2C[C@@H]3c4ccccc4Cc4ccc(F)cc4[C@@H]3O2)CC1 (stereo partly shown)
5. COc1ccc(OCC2CCN(C[C@H]3C[C@@H]4c5ccccc5Cc5ccc(F)cc5[C@@H]4O3)C2)cc1 (stereo partly shown)
6. Fc1ccc2c(c1)C1OC(CN3CCN(Cc4ccc5ccccc5c4)CC3)CC1c1ccccc1C2 (stereo not shown)

Output line:
1: 6.03 nM; 2: 25.7 nM; 3: 44.7 nM; 4: 26.3 nM; 5: 6.03 nM; 6: 30.9 nM

Give measured IC50 for every item shown.
1. OCC1CCN(C[C@H]2C[C@@H]3c4ccccc4Cc4ccc(F)cc4[C@@H]3O2)C1 (stereo partly shown)
2. O=S(=O)(Cc1ccccc1)N1CCN(CC2CC3c4ccccc4Cc4ccc(F)cc4C3O2)CC1 (stereo not shown)

Output line:
1. 8.51 nM
2. 4.07 nM

# return IC50 for each item in the list
1. CCCCCCCCCCNC(=O)C1CCN(C[C@H]2C[C@@H]3c4ccccc4Cc4ccc(F)cc4[C@@H]3O2)CC1
2. Cc1ccc(C(=O)OC2CCN(CC3CC4c5ccccc5Cc5ccc(F)cc5C4O3)C2)cc1 (mixture of isomers)
3. Fc1ccc2c(c1)C1OC(CN3CCC(N4CCCCC4)CC3)CC1c1ccccc1C2 (stereo not shown)
4. Cc1ccc(S(=O)(=O)N2CCN(CC3CC4c5ccccc5Cc5ccc(F)cc5C4O3)CC2)cc1 (stereo not shown)
5. OCCC1CCCN(CC2CC3c4ccccc4Cc4ccc(F)cc4C3O2)C1 (mixture of isomers)

Output line:
50.1 nM
7.41 nM
43.7 nM
81.3 nM
17 nM
